Listed here: items and their measured ADCC reporter Top (RFU).
Test Target: T1, human LIV-1 (human, UniProt Q13433 29-755)
T1 sequence (looked up): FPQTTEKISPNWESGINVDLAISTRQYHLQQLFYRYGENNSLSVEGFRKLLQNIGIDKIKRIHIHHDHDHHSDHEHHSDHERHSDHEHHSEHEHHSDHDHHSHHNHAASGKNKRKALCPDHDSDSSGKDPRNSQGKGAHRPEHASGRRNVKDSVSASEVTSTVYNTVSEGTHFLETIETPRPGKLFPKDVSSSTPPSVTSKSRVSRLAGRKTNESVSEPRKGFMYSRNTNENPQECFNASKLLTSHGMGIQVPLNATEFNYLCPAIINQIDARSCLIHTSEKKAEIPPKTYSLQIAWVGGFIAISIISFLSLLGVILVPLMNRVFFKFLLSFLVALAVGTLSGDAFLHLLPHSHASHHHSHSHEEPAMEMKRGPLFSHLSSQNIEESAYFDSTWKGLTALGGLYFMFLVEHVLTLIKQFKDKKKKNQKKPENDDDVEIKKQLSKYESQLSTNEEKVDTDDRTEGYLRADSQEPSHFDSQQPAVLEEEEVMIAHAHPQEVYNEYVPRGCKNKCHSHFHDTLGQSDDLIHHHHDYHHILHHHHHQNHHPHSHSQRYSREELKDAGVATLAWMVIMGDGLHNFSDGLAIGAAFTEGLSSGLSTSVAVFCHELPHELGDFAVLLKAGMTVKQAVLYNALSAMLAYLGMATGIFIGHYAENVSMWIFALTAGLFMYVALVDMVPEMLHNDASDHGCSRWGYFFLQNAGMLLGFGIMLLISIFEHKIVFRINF
Experiment Summary: cell-based or functional assay

Binder	ADCC reporter Top (RFU)
56B3E6 (antibody, V domains shown, Tested as chimeric antibody) VH: EVQLQQSGAELVRSGASVKLSCTASGFNIKDYYIHWVKQRPEQGLEWIGWIDPENDDTEYAPKFQGKATMTADTSSNTAYLHLSSLTSEDTAVYYCPHGGGFRVFDSWGQGTTLTVSS VL: DVLMTQTPLSLPVSLGDQASISCRSSQDIVHSNGNTYLEWYLQKPGQSPKLLIYKVSNRFSGVPDRFSGSGSGTDFTLKISRVEAEDLGVYYCFQGSHVPWTFGGGTKLEIK	52300
248H1G3 (antibody, V domains shown, Tested as chimeric antibody) VH: EVQLQQSGPELMKRGASVKISCKTSTFTFTEFTIHWVKQSHGKSLEWIGGINPNTGGTSYNQNFTGKATLTVDKSSITAYMELRSLTSEDSAIYYCAPNWDGYWFFDVWGAGTTVTVSS VL: DIQMTQSPASLSASVGETVTITCRASGNIQNYLAWYQQKQGKSPQLLVYGAKTLADGVPSRFSGSGSGTQFSLKINSLQPEDFGSYYCQHFWSPPLTFGAGTKLELK	61600
293F10B6 (antibody, V domains shown, Tested as chimeric antibody) VH: QVTLKESGPGMLQPSQTLNLTCSFSGFSLNTSGMGVSWIRQPSGKGLEWLAHIFWDDDKRYNPSLKSRLTISKDVSSNQVFLKITSVDTADTATYFCARRARNNYPWFPYWGQGTLVTVSA VL: DIVLTQSPASLAVSLGQRATISCKASQSVDYDGDSYMNWYQQKPGQPPKLLIYAASNLDSGIPARFSGSGSGTDFTLNIHPMEDEDVATYYCQQSNGAPFTFGGGTKLEIK	133000
